assay: Selectivity index, ratio of IC50 for CHO cells to IC50 for chloroquine-sensitive Plasmodium falciparum NF54; format: toxicity, cell-based; details: hamster, read-out: Ratio IC50
Listing of entries alongside the reported selectivity ratio.
Hey, just send me the number, nothing else.

Past entries and their recorded results:
CN1C[C@H](CN)C[C@@H]2c3cccc4c3c(cn4C)C[C@H]21: 7
CCCCC(=O)NC[C@@H]1C[C@@H]2c3cccc4c3c(cn4C)C[C@H]2N(C)C1: 6
CC(=O)c1ccc(C(=O)NC[C@@H]2C[C@@H]3c4cccc5c4c(cn5C)C[C@H]3N(C)C2)cc1: 12

Now consider a different compound.
Could you share which selectivity ratio value was measured for `CN1C[C@H](CNC(=O)c2ccc(Cl)cc2Cl)C[C@@H]2c3cccc4c3c(cn4C)C[C@H]21` ? 1

----------
test: Selectivity index, ratio of IC50 for CHO cells to IC50 for chloroquine-sensitive Plasmodium falciparum NF54; type: toxicity, cell-based; conditions: hamster, read-out: Ratio IC50
# key: entry, value: selectivity ratio
Lab note: record the figure alone, no unit after it.

COc1ccc(C(=O)NC[C@@H]2C[C@@H]3c4cccc5c4c(cn5C)C[C@H]3N(C)C2)cc1: 1

Entry `CN1C[C@H](CNC(=O)c2ccc([N+](=O)[O-])cc2)C[C@@H]2c3cccc4c3c(cn4C)C[C@H]21` has what selectivity ratio? 11

Could you share which selectivity ratio value was measured for CN1C[C@H](CNC(=O)OCc2ccccc2)C[C@@H]2c3cccc4c3c(cn4C)C[C@H]21 [METERGOLINE] ? 4.5

----------
assay: Selectivity index, ratio of IC50 for CHO cells to IC50 for chloroquine-sensitive Plasmodium falciparum NF54; assay type: toxicity, cell-based; details: hamster, read-out: Ratio IC50
As shown below, each of these compounds has a reported selectivity ratio value.
Give a plain numeric answer without units written out.

Use the examples below as a reference point.
CSc1ccc(C(=O)NC[C@@H]2C[C@@H]3c4cccc5c4c(cn5C)C[C@H]3N(C)C2)cc1: 1
CN1C[C@H](CNC(=O)c2ccc(Cl)cc2)C[C@@H]2c3cccc4c3c(cn4C)C[C@H]21: 3

Requested read-out: selectivity ratio. Entry: `CN1C[C@H](CNC(=O)C2CCCC2)C[C@@H]2c3cccc4c3c(cn4C)C[C@H]21` 33

Form field: reported selectivity ratio of `CN1C[C@H](CNC(=O)c2ccc(OC(F)(F)F)cc2)C[C@@H]2c3cccc4c3c(cn4C)C[C@H]21` 3

----------
test: Selectivity index, ratio of IC50 for CHO cells to IC50 for chloroquine-sensitive Plasmodium falciparum NF54; type: toxicity, cell-based; conditions: hamster, read-out: Ratio IC50
Use 4 as the dividing line for selectivity ratio, with the line itself on the Met side and lower values as Not met.

CCCCCCCCCC(=O)NC[C@@H]1C[C@@H]2c3cccc4c3c(cn4C)C[C@H]2N(C)C1: Met
CN1C[C@H](CNC(=O)c2ccc(Br)cc2)C[C@@H]2c3cccc4c3c(cn4C)C[C@H]21: Not met
CCCCCCC(=O)NC[C@@H]1C[C@@H]2c3cccc4c3c(cn4C)C[C@H]2N(C)C1: Not met
CN1C[C@H](CNC(=O)c2ccccn2)C[C@@H]2c3cccc4c3c(cn4C)C[C@H]21: Met
CN1C[C@H](CNC(=O)c2ccncc2)C[C@@H]2c3cccc4c3c(cn4C)C[C@H]21: Met

Would you say `CN1C[C@H](CNC(=O)c2ccc(F)cc2)C[C@@H]2c3cccc4c3c(cn4C)C[C@H]21` shows selectivity ratio at minimum 4? Not met

Reported selectivity ratio reaches at least 4 for CN1C[C@H](CNC(=O)C2CCCCN2)C[C@@H]2c3cccc4c3c(cn4C)C[C@H]21 (stereo partly drawn) ? Met
